Listing of recorded IC50 by entry.
- System: Prostaglandin G/H synthase 1 (Ovis aries, UniProt P05979)
- Sequence (P05979 whole entry): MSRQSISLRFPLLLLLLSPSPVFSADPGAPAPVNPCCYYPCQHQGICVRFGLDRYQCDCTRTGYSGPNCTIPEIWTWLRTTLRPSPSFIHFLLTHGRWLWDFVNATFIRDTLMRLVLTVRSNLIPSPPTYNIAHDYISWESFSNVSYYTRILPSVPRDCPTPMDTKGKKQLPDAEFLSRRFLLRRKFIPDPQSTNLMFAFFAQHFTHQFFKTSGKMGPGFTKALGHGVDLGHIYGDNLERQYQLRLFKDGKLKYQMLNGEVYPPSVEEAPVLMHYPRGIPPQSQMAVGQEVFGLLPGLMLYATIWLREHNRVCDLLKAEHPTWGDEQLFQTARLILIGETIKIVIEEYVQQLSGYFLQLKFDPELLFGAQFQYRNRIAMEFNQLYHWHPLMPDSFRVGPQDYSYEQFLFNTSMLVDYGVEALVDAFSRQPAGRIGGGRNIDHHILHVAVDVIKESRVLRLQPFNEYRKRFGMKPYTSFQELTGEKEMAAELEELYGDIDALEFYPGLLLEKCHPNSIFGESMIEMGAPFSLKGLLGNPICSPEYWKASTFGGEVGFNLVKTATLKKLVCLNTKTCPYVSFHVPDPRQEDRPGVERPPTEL
Report the figure in µM without appending any unit label.

The following compounds have reported results that may help.
Cc1ccc(NC(=O)c2c(N=Cc3ccco3)c(C#N)c3n2CCC3)cc1 = 9.23
N#Cc1c(N=Cc2cccnc2)c(C(=O)Nc2ccc(Cl)cc2)n2c1CCC2 = 5.78

# IC50 lookup, item N#Cc1c(N=Cc2ccco2)c(C(=O)Nc2ccc(Cl)cc2)n2c1CCC2
8.41

Please give the result for N#Cc1c(N=Cc2ccco2)c(C(=O)Nc2ccccc2)n2c1CCC2 too.
6.54

Next entry: N#Cc1c(N=Cc2cccs2)c(C(=O)Nc2ccc(Cl)cc2)n2c1CCC2
7.68
